assayText: counter assay for TAg ATPase ADP read-out – biochemical, ADP-Hunter, fluorescence, counter-screen (AID 2501);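 note: purified T antigen ATPase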
conditionInfo: series mostly up to 100 µM
About 1,200 (55%) of roughly 2,200 compounds were called active. So high a share suggests a set chosen from earlier hits. The list shows a part of the results.
quantityMeasured: IC50

Solved entries (count: 5):
# compound, result
measured = [
    ("COc1cc(C#CC#CCN2CCCCC2)ccc1O", "5.76 µM (active)"),
    ("COc1cc(/C=C/C(=O)OCC(=O)N2CC(=O)Nc3ccccc32)ccc1O", "6.1 µM (active)"),
    ("Cc1cc(C)c2c(=O)n(CC(=O)Nc3cccc(Cl)c3C)sc2n1", "inactive"),
    ("COc1cc(/C=C/C(=O)OCC(=O)Nc2ccc(S(N)(=O)=O)cc2)ccc1O", "12.2 µM (active)"),
    ("COc1ccc(-c2c(-c3ccc(O)cc3O)n[nH]c2C)cc1OC", "13.2 µM (active)"),
]

Please state IC50 for every compound in the list that follows.
1. COc1cc(/C=C2/C(=N)N3C(=NC2=O)SN=C3S(C)(=O)=O)ccc1OS(=O)(=O)c1ccc(C)cc1
2. CCCCC(=O)OCC(=O)c1[nH]c(C)c(C(=O)OCC)c1C
3. COc1cc(/C=C2/C(=N)N3C(=NC2=O)SN=C3S(=O)(=O)C(C)C)ccc1OS(=O)(=O)c1ccccc1
4. Cc1sc2nc(CSc3ccc([N+](=O)[O-])cc3)[nH]c(=O)c2c1C

Result block:
1: inactive; 2: inactive; 3: inactive; 4: inactive

Please state IC50 for every compound in the list that follows.
1. O=C(COc1ccc2ccccc2c1)Nc1ccc(Cc2ccncc2)cc1
2. NS(=O)(=O)c1ccc(NC(=O)COC(=O)c2ccc(Cl)nc2)cc1
3. OC[C@H]1O[C@@H](Oc2cc(O)cc(/C=C/c3ccc(O)cc3)c2)[C@H](O)[C@@H](O)[C@@H]1O

Result block:
1. inactive
2. inactive
3. 7.7 µM (active)

Please state IC50 for every compound in the list that follows.
1. c1coc(-c2nnc(-c3ccco3)nn2)c1
2. CCCOc1ccc(C(=O)N2CC3(CC(c4cccc(NC(=O)[C@@H]5CCC(=O)N5)c4)=NO3)C[C@H]2C(=O)NC2(C(N)=O)CC2)cc1 (some centres not stated)

Result block:
1. inactive
2. inactive

---

assayText: counter assay for TAg ATPase ADP read-out – biochemical, ADP-Hunter, fluorescence, counter-screen (AID 2501);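 note: purified T antigen ATPase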
conditionInfo: series mostly up to 100 µM
About 1,200 (55%) of roughly 2,200 compounds were called active. The limit is not given here; nearly all actives have IC50 up to about 92 µM. The set was probably picked from earlier hits. The list shows a part of the results.
Return exactly one item of y (active), n (inactive)

Here's what some known entries look like.
# compound, category
measured = [
    ("Cc1ccc(NC(=S)NCC2CCN(C(C)c3ccccc3)C2)cc1C (stereo not given)", "n"),
    ("COc1ccc(N2CCC(CNC(=S)Nc3c(C)cccc3C)C2)cc1 (stereo not given)", "y"),
    ("N#Cc1c(NC(=O)CCC(=O)O)sc2c1CCCC2", "n"),
    ("O=C(NC1CCCC1)C(c1ccc(F)cc1)N(Cc1ccc(F)cc1)C(=O)c1ccn[nH]1 (stereo not given)", "n"),
]

Query block: Record request — test call for CCOc1cc2[nH]c(=O)n(Cc3ccc(C(=O)NCCCN4CCCC4=O)cc3)c(=O)c2cc1OCC
Result block: n

Query block: Record request — test call for COc1cc(/C=N/Nc2nc3ccccc3[nH]2)cc(OC)c1O
Result block: y

Query block: Record request — test call for C(=N\Nc1nc2ccccc2[nH]1)/c1cccs1
Result block: y

Query block: Record request — test call for CC(/C=N/n1c(-c2n[nH]c3c2CCC3)n[nH]c1=S)=C\c1ccco1
Result block: y

Query block: Record request — test call for COc1ccc(N2CCC(CNC(=S)Nc3ccc(C)cc3C)C2)cc1 (stereo not given)
Result block: y

---

assayText: counter assay for TAg ATPase ADP read-out – biochemical, ADP-Hunter, fluorescence, counter-screen (AID 2501);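 note: purified T antigen ATPase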
conditionInfo: series mostly up to 100 µM
Out of some 2,200 compounds screened, about 1,200 (55%) were called active. The limit is not given here; nearly all actives have IC50 up to about 92 µM. The set was probably picked from earlier hits. The list shows a part of the results.
Return exactly one item of active, inactive

Here's what some known entries look like.
# compound, category
rows = [
    ("COc1cc(/C=N/NC(=S)Nc2cccc(C(=O)O)c2)ccc1O", "active"),
    ("Nc1ccc(OCC(O)C[n+]2ccc(CCS(=O)(=O)[O-])cc2)cc1 (stereo not given)", "active"),
    ("Oc1ccc(NCc2cccs2)cc1", "active"),
    ("COc1cc(/C=N\\NC(=O)c2c(C)nc3cc(C)ccn23)ccc1O", "active"),
    ("COc1cc(/C=N/NC(=O)c2cccs2)ccc1O", "active"),
    ("NC(=O)N/N=C/c1ccc(N2CCOCC2)s1", "active"),
    ("CCN(C(=O)CN1CCN(c2ccc(O)cc2)CC1)c1c(N)n(Cc2ccccc2)c(=O)[nH]c1=O", "active"),
    ("O=C(c1ccco1)N1CCN(C(=S)Nc2ccc(F)c(Cl)c2)CC1", "active"),
]

Query block: Record request — test call for COC(=O)c1ccccc1-n1c(C)nc(=O)c(-c2ccccc2)c1C
Result block: inactive

Query block: Record request — test call for Cc1cccc(C)c1NC(=O)CSCC(=O)c1ccc(O)c(O)c1
Result block: active

Query block: Record request — test call for COCCN(C(=O)COC(=O)c1cc2c(s1)CCC2)c1c(N)n(Cc2ccccc2)c(=O)[nH]c1=O
Result block: inactive

Query block: Record request — test call for O=[N+]([O-])c1c(Nc2ccc(O)cc2)cc(Cl)c2nonc12
Result block: active

Query block: Record request — test call for Cc1cc(-c2ccc(N=Nc3c(S(=O)(=O)O)cc4cc(S(=O)(=O)O)cc(N)c4c3O)c(C)c2)ccc1N=Nc1c(S(=O)(=O)O)cc2cc(S(=O)(=O)O)cc(N)c2c1O
Result block: active

Query block: Record request — test call for O=C(NCc1ccccn1)C1CCN(S(=O)(=O)c2ccccc2)CC1
Result block: inactive

Query block: Record request — test call for O=C(O)c1ccc(Nc2cc(Cl)c3nonc3c2[N+](=O)[O-])cc1
Result block: inactive

Query block: Record request — test call for Cc1cc(C)n(CCc2nc(-c3ccco3)cs2)n1
Result block: inactive

Query block: Record request — test call for Oc1ccc(C2=Nn3c(nnc3-c3ccco3)SC2)cc1O
Result block: active

---

assayText: counter assay for TAg ATPase ADP read-out – biochemical, ADP-Hunter, fluorescence, counter-screen (AID 2501);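 note: purified T antigen ATPase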
conditionInfo: series mostly up to 100 µM
About 1,200 (55%) of roughly 2,200 compounds were called active. The set was probably picked from earlier hits. This is one part of the list.

# molecule, IC50
records = [
    ("CCN(CC)c1ccc(/C=C2\\C(=O)N(c3nnc(C)c(=O)[nH]3)N=C2C)cc1", "inactive"),
    ("COc1ccc([C@@H]2[C@@H]3C(=O)N(C(C)(C)C)C(=O)[C@@H]3[C@]3(C)C(=O)N(c4ccc(C)cc4)C(=O)N23)cc1", "inactive"),
    ("Cc1nc2sc(C(c3ccco3)N3CCC(C)CC3)c(O)n2n1 (stereo not drawn)", "inactive"),
]

---

assayText: counter assay for TAg ATPase ADP read-out – biochemical, ADP-Hunter, fluorescence, counter-screen (AID 2501);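 note: purified T antigen ATPase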
conditionInfo: series mostly up to 100 µM
In all, about 2,200 compounds went through this assay and about 1,200 (55%) were called active. Cut-off not given; nearly all actives show IC50 up to about 92 µM. So high a share suggests a set chosen from earlier hits. The list shows a part of the results.
Return exactly one item of active, inactive

Here's what some known entries look like.
# smilesNotation, category
measured = [
    ("CN(C)c1ccc(NC(=O)Cn2ncn3c(cc4ccccc43)c2=O)cc1", "active"),
    ("O=Nc1ccc(NOC(=O)c2ccccc2Br)cc1", "active"),
    ("COc1cc(/C=C2\\SC(N)=NC2=O)ccc1O", "active"),
    ("CCOc1ccc(CCNC(=O)c2cc(-c3ccccc3)c(N3CCOCC3)s2)cc1OCC", "inactive"),
    ("O=C1/C(=N/n2cnnc2)c2ccccc2N1Cc1ccccc1", "inactive"),
    ("CC(C)N=C(NC#N)SCc1ccc(Br)cc1", "inactive"),
]

Query block: Record request — test call for CN(C)c1ccc(N2CC(C)(C)C2=O)cc1
Result block: active

Query block: Record request — test call for Cc1nc2ncccn2c1-c1csc(Nc2ccc(N(C)C)cc2)n1
Result block: active

Query block: Record request — test call for COc1cc(/C=C(\C#N)c2ccccn2)cc(OC)c1O
Result block: active

Query block: Record request — test call for Cc1ccc(NC(=O)CN2C(=O)N/C(=C\c3cccn3-c3cccc(C(=O)O)c3)C2=O)cc1
Result block: inactive

Query block: Record request — test call for CN(C)c1ccc(NC(=O)CSc2nc3c(c(=O)[nH]2)CCCC3)cc1
Result block: active

Query block: Record request — test call for CN(C)C(=O)c1c(-c2ccccc2)oc2ccc(O)cc12
Result block: active
